- TARGET OR TEST SYSTEM: Carnitine O-palmitoyltransferase 1, liver isoform (Homo sapiens)
- Sequence (P50416 whole entry, canonical isoform): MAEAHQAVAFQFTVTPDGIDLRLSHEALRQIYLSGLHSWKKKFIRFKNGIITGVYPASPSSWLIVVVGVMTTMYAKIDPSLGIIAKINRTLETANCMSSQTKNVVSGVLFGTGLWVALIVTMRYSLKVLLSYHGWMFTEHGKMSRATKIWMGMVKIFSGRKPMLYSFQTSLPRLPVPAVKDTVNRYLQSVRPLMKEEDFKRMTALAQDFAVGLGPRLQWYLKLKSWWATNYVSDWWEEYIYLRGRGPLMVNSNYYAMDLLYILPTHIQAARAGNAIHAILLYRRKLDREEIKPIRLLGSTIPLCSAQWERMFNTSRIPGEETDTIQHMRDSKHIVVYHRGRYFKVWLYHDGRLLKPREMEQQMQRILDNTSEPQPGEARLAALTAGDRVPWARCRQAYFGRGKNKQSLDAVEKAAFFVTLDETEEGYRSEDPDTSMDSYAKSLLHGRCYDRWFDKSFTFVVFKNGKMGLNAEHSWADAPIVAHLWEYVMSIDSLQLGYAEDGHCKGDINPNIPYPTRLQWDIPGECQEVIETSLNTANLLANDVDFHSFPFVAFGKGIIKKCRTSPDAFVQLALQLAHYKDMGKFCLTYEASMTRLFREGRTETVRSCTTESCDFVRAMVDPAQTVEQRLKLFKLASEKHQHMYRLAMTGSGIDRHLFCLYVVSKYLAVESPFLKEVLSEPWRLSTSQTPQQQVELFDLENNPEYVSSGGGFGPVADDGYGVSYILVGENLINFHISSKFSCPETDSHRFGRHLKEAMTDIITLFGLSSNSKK
- ASSAY EXPLANATION: SUPPLEMENTARY: Inhibition of Carnitine palmitoyltransferase 1, liver isoform
Below, each entry is listed alongside its reported pIC50.
The meaning of pIC50 here: minus log10 of the concentration in molar units.

Sample answers from the record:
[[record]]
compound = "CCN(c1cc(C(=O)Nc2nc(CC(=O)O)cs2)cc2c1OCO2)S(=O)(=O)c1cc(Cl)ccc1OC"
target_or_test_system = "Carnitine O-palmitoyltransferase 1, liver isoform (Homo sapiens)"
endpoint_result = 7.02

[[record]]
compound = "COc1ccc(-c2noc(C3C[S+]([O-])CCN3C(=O)COc3ccccc3)n2)cc1 (centres undefined)"
target_or_test_system = "Carnitine O-palmitoyltransferase 1, liver isoform (Homo sapiens)"
endpoint_result = 6.79

[[record]]
compound = "O=C(c1cc(-c2noc([C@H]3CCCCN3C(=O)COc3ccccc3)n2)ccn1)N1CCOCC1"
target_or_test_system = "Carnitine O-palmitoyltransferase 1, liver isoform (Homo sapiens)"
endpoint_result = 7.09


Query: pIC50 for `Cc1cc(C)cc(S(=O)(=O)N2CCOc3ccc(C(=O)Nc4ccc(C(=O)O)c(F)c4)cc32)c1` ?
Result: 6.60

Query: Field request: pIC50 | item: `Cc1ccnc(N2CCN(C(=O)[C@H]3CCCCN3C(=O)COc3ccccc3)CC2)c1`
Result: 6.91

Query: # lookup: pIC50 of `COc1ccc(Cl)cc1S(=O)(=O)N1CCOc2ccc(C(=O)Nc3ccccc3)cc21`
Result: 7.39

Query: Tell me the measured pIC50 of `O=C(O)c1ccc(NC(=O)c2cccc(S(=O)(=O)N3CCCc4ccc(C(F)(F)F)cc43)c2)cc1` , please.
Result: 7.47

Query: Fill in the blank: the reported pIC50 of `O=C(COc1ccccc1)N1CCCC[C@@H]1c1noc(-c2ccc(-n3cncn3)cc2)n1` is ____.
Result: 7.04

Query: pIC50; subject: `COCCN(c1cc(C(=O)Nc2nc(CC(=O)O)cs2)cc2c1OCO2)S(=O)(=O)c1cc(Cl)ccc1OC`
Result: 6.60

* * *

Below are IC50 values recorded for Carnitine O-palmitoyltransferase 2, mitochondrial (Homo sapiens, UniProt P23786).

Completed entries (count: 5):
[[record]]
molecule = "CCOc1ccc(C(=O)Nc2ccc(C(=O)O)c(F)c2)cc1N(CCS(=O)O)S(=O)(=O)c1cc(Cl)ccc1OC"
endpoint_result = "> 100 µM"

[[record]]
molecule = "O=C(COc1ccccc1)N1CCCCC1c1cc(-c2ccccc2)n[nH]1 (centres undefined)"
endpoint_result = "60.6 µM"

[[record]]
molecule = "O=C([C@H]1CCCCN1C(=O)COc1ccccc1)N1CCN(c2ccccn2)CC1"
endpoint_result = "1.03 µM"

[[record]]
molecule = "O=C(COc1ccccc1)N1CCNC[C@@H]1c1nc(-c2ccc3[nH]cnc3c2)no1"
endpoint_result = "> 100 µM"

[[record]]
molecule = "O=C(COc1ccccc1)N1CCCC[C@@H]1c1nc(-c2ccc3c(c2)OCO3)cs1"
endpoint_result = "56 µM"


Query: # query: IC50 | item `COc1ccc(Cl)cc1S(=O)(=O)N1COc2c(F)cc(C(=O)Nc3ccc(C(=O)O)c(F)c3)cc21` | system: Carnitine O-palmitoyltransferase 2, mitochondrial (Homo sapiens, UniProt P23786)
Result: 1.95 µM

Query: Fill in the recorded IC50 for this molecule, with Carnitine O-palmitoyltransferase 2, mitochondrial (Homo sapiens, UniProt P23786) as test system: `Nc1ccc(-c2n[nH]c([C@H]3CCCCN3C(=O)COc3ccccc3)n2)cn1`
Sequence (P23786 whole entry): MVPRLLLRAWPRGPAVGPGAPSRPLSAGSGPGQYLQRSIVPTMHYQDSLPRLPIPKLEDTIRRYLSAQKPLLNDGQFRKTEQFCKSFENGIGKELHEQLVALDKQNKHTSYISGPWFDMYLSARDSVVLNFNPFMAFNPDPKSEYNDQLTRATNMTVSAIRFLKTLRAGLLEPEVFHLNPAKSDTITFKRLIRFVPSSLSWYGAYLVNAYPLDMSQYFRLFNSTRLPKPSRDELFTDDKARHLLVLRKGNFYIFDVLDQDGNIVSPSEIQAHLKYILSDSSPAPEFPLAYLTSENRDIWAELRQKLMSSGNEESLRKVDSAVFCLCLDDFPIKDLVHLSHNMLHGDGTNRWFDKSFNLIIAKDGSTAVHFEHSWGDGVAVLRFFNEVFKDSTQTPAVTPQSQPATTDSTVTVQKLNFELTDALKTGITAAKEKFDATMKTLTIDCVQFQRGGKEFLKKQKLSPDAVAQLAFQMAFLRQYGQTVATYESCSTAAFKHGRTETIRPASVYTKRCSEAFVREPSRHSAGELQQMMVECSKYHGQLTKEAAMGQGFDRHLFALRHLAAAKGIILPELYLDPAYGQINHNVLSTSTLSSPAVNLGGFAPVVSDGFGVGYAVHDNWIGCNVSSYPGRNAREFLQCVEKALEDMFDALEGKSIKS
Result: 45.3 µM

Query: What value of IC50 on Carnitine O-palmitoyltransferase 2, mitochondrial (Homo sapiens, UniProt P23786) does `O=C(O)c1cncc(-c2noc([C@H]3CCCCN3C(=O)COc3ccccc3)n2)c1` have?
Result: 96.3 µM

Query: API: value(readout=IC50, system=Carnitine O-palmitoyltransferase 2, mitochondrial (Homo sapiens, UniProt P23786)) for record `Cc1ccnc(N2CCN(C(=O)[C@H]3CCCCN3C(=O)COc3ccccc3)CC2)c1`
Result: 0.586 µM
